Data provenance: PubChem BioAssay (NCI)

- Test system: PC-3 prostate
- Assay method text: NCI tumour cell line growth inhibition, 48 h
Measured attribute: TGI

>  <Structure notation>
Cc1cc(Nc2ccc(N=Nc3ccc(O)c4ncccc34)cc2)nc(C)n1

>  <Measured attribute>
TGI

>  <Value reported>
> 69.9 µM

$$$$
>  <Structure notation>
O=c1[nH]c2cc3cccnc3c(Cl)c2nc1C(F)(F)F

>  <Measured attribute>
TGI

>  <Value reported>
> 100 µM

$$$$
>  <Structure notation>
Nc1ccccc1NC(=O)CCCCCCC(=O)Nc1ccc2c(c1)/C(=C/c1ccc[nH]1)C(=O)N2

>  <Measured attribute>
TGI

>  <Value reported>
> 100 µM

$$$$
>  <Structure notation>
Cc1cc(NS(=O)(=O)c2ccc(NC(=O)c3cccc4c(NNc5ccc(S(=O)(=O)N=C(N)N)cc5)c5ccccc5nc34)cc2)no1

>  <Measured attribute>
TGI

>  <Value reported>
> 100 µM

$$$$
